pKi: −log10 of the molar value.
Assay read-out pKi on Alpha-1A adrenergic receptor (Bos taurus, UniProt P18130); records merged from the literature.
Sequence (P18130 whole entry): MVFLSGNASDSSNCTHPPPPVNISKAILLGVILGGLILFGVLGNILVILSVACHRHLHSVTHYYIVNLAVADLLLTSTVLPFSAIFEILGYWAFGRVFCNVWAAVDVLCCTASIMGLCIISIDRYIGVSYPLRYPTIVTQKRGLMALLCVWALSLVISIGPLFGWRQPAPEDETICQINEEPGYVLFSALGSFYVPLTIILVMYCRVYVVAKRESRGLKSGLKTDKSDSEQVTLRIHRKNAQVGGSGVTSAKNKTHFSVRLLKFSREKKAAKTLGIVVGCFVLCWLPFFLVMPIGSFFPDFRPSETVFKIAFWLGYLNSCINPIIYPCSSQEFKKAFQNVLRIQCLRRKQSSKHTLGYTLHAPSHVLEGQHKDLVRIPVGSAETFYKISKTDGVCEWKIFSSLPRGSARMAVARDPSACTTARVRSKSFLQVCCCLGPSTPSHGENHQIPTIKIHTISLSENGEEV
measurement.label: pKi

compound | tested.system | pKi
CN1CCC(c2cn(-c3ccc(F)cc3)c3ccc(-c4ccnn4C)cc23)CC1 | Alpha-1A adrenergic receptor (Bos taurus, UniProt P18130) | 9.49

I. COc1ccccc1N1CCN(CCn2c(=O)c3c(-c4ccccc4)csc3n(C)c2=O)CC1
II. CN(C1CCN2CCc3c(oc4ccccc34)C2C1)S(=O)(=O)CCO (centres undefined)
III. Cc1cc(C(C)(C)C)c(O)c(C)c1CC1=NCCN1
INPUT: Hello, I need these entries ordered by pKi, highest reading first. Thanks! Output spec: a listing of the labels in the requested order.
OUTPUT: I, III, II

====

Endpoint summary: pKi, system: Alpha-1A adrenergic receptor (Bos taurus, UniProt P18130), multiple sources combined.
pKi: −log10 of the molar value.
measurement.label: pKi

Worked set:
compound | pKi
CCS(=O)(=O)Nc1ccc2c(c1)C(c1c[nH]cn1)CCC2 (stereo unspecified) | 5.69
CN1CCC(c2cn(-c3ccncc3)c3ccc(-c4ccncc4)cc23)CC1 | 7.62
CN1CCC(c2cn(-c3ccncc3)c3ccc(-c4ccnn4C)cc23)CC1 | 7.72
CNC[C@H](O)c1cccc(O)c1 | 6.03
CN1CCC(c2cn(-c3ccc(F)cc3)c3ccc(-c4ncn(C)n4)cc23)CC1 | 9.80
NC(=O)c1cccnc1N1CCNCC1 | 4.21
COc1ccccc1N1CCN(CCn2c(=O)[nH]c3sc(-c4ccccc4)cc3c2=O)CC1 | 9.61
CN1CCC(c2cn(-c3ccncc3)c3ccc(-c4cncnc4)cc23)CC1 | 7.72

I. COc1ccccc1N1CCN(CCn2c(=O)[nH]c3sccc3c2=O)CC1
II. CN1CCC(c2cn(-c3ccncc3)c3ccc(-c4cccnc4)cc23)CC1
III. CN([C@H]1CCN2CCc3c(oc4ccccc34)[C@H]2C1)S(=O)(=O)CCO
INPUT: Please list these compounds in decreasing order of pKi. Please, when replying, give the labels in the order that was requested.
OUTPUT: I, II, III
